Give measured composite z-score for each item. Keep answers brief.
tested on: XIP peptide (Xip251-270); assay: small-molecule binders of XIP peptide, primary screen, biochemical, small-molecule microarray, fluorescence 635/667 nm, 0.5 µg/mL protein (AID 1183); settings: small-molecule microarray binding, fluorescence 635 nm; higher = more signal
Numbers only.

Past entries and their recorded results:
Compound | composite z-score
COc1ccc([Si](C)(C)[C@H]2[C@H](CCn3cc(CCO)nn3)O[C@@]3(C(=O)N(Cc4ccc(N5CCOC5=O)cc4)c4ccccc43)[C@@H]2C)cc1 | 0.866
Cc1ccc(F)cc1S(=O)(=O)N[C@@H]1CCN(Cc2ccc(-c3ccccc3)cc2)C1 | 0.479
CCCN1C(=O)[C@]2(COC(c3ccc(OCCCO)cc3)=N2)Cc2ccccc21 | 0.42
CCCCCCCCCCC(O)C1C=CC2C(=O)N(Cc3ccccc3)C(=O)C2N1n1cnnc1 (configuration not stated) | 0.609
COC(=O)C(CC#Cc1ccc2c(c1)[C@]1(C(=O)N2)[C@H](C(=O)NC[C@H](O)c2ccccc2)[C@H]2C(=O)O[C@H](c3ccccc3)[C@H](c3ccccc3)N2[C@@H]1c1ccc(OCCO)cc1)C(=O)OC | 0.736

Respectfully, I request composite z-score for each entry included below.
1. COC(=O)[C@@]1(Cc2ccc(OC)cc2)[C@H]2c3cc(C(=O)N4CCCC4)n(Cc4cc(F)cc5c4OCOC5)c3C[C@H]2CN1C(=O)c1ccccc1
2. CN1C(=O)C2C=CC(C(O)c3ccccn3)N(Nc3ccccc3)C2C1=O (configuration not stated)

1. 0.857
2. 0.325

###

experiment: cell viability in Huh7 cells, primary screen, cytotoxicity control for HCV replication inhibitor project, CellTiter-Glo luminescence, basal, 48 h (AID 1143); settings: Huh7 HCV replicon, higher = more signal, called active from +8 up or from −8 down;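 also: Huh7 hepatoma cells carrying a hepatitis C replication reporter with no stimulus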
Decide by z-score: equal to or exceeding -0.6 means T, less means F.

Example entries and their recorded answers appear below.
Molecule | Classification
[N-]=[N+]=NCc1ccccc1C[C@]1(C(=O)NCCN2CCOCC2)N=C(c2ccc(OCCCO)cc2)O[C@H]1c1ccccc1N=[N+]=[N-] | F
COC(=O)[C@@]1(Cc2ccccc2)[C@H]2c3cc(C(=O)N(C)C)n(Cc4c(-c5ccccc5)noc4C)c3C[C@H]2CN1C(=O)c1ccccc1 | F
[N-]=[N+]=NCc1ccccc1[C@H]1OC(c2ccc(OCCCO)cc2)=N[C@@]1(CCS(=O)(=O)c1ccccc1)C(=O)N1CCOCC1 | F
Cc1ccccc1C(O)C1C=CC2C(=O)N(C)C(=O)C2N1N1CCCCC1 (stereo unspecified) | T

API: above_or_equal(metric=z-score, cutoff=-0.6) for item `COCCOC(=O)N1C(=O)[C@@]2(c3cc(C#CCNC(N)=O)ccc31)[C@H](c1ccccc1OCCO)N1[C@H](c3ccccc3)[C@H](c3ccccc3)OC(=O)[C@H]1[C@@H]2C(N)=O`
F

###

test: MM1S cell viability effects, profiling panel, calcein-AM fluorescence, 48 h, basal (AID 1165); conditions: higher = more signal;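 also: viability of MM1S multiple myeloma cells under basal unstimulated conditions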
Give measured z-score for each item. Keep answers brief.
Answers are plain numbers.

Compound | z-score
CC(C)C(=C=CC[C@@H](O)c1ccccc1OCCO)C[C@@H](O)c1ccccn1 | -0.757
[N-]=[N+]=NCc1ccccc1[C@@H]1OC(c2ccc(OCCCO)cc2)=N[C@]1(Cc1ccccc1)C(=O)N1CCCCC1 | -0.604
COCCOC(=O)N1C(=O)[C@@]2(c3ccccc31)[C@H](C(=O)NC[C@H](O)c1ccccc1)[C@H]1C(=O)O[C@H](c3ccccc3)[C@H](c3ccccc3)N1[C@@H]2c1ccc(OCCO)cc1 | -0.233

Respectfully, I request z-score for each entry included below.
1. COc1ccc(C#Cc2ccc3c(c2)[C@]2(C(=O)N3)[C@H](c3ccc(O)cc3)N3[C@H](c4ccccc4)[C@H](c4ccccc4)OC(=O)[C@H]3[C@@H]2C(=O)NC[C@H](O)c2ccccc2)cc1
2. COc1ccc(C(O)C2C=CC3C(=O)N(c4ccccc4)C(=O)C3N2Nc2ccc([N+](=O)[O-])cc2)cc1OCc1ccccc1 (centres undefined)
3. COCCOC(=O)N1C(=O)[C@@]2(c3cc(C#CCNC(N)=O)ccc31)[C@H](C(=O)N1CCN(c3ncccn3)CC1)[C@H]1C(=O)O[C@H](c3ccccc3)[C@H](c3ccccc3)N1[C@@H]2c1ccccc1OCCO
4. O=C1C2C=CC(C(O)c3ccc(B(O)O)cc3)N(Nc3ccccc3)C2C(=O)N1c1ccccc1 (centres undefined)
5. C=C[C@@H](COC(C)=O)N(Cc1ccccc1[N+](=O)[O-])S(=O)(=O)c1ccc(Br)cc1

[-3, 0.324, -0.648, -1.74, -0.531]

###

assay: binders from COS7 lysate, DM2A8 probe, primary screen, torsin A project, cell lysate, small-molecule microarray, fluorescence 635/667 (AID 1065); conditions: higher = more signal, COS7 lysate expressing mutant human TOR1A
Give measured composite z-score for each item. Keep answers brief.

Compound | Observed Value
O=C1C2C=CC(C(O)c3ccc(B(O)O)cc3)N(Nc3ccccc3)C2C(=O)N1c1ccccc1 (stereo unspecified) | 0.0762
[N-]=[N+]=NCc1ccccc1[C@@H]1OC(c2ccc(OCCCO)cc2)=N[C@]1(Cc1ccccc1)C(=O)N1CCCCC1 | 1.1
COc1ccc(C#Cc2ccc3c(c2)[C@]2(C(=O)N3)[C@H](C(=O)NC[C@H](O)c3ccccc3)[C@H]3C(=O)O[C@H](c4ccccc4)[C@H](c4ccccc4)N3[C@@H]2c2ccc(OCCO)cc2)cc1 | 0.637
COCCOC(=O)N1C(=O)[C@@]2(c3cc(C#CCC(C(=O)OC)C(=O)OC)ccc31)[C@H](c1ccccc1OCCO)N1[C@H](c3ccccc3)[C@H](c3ccccc3)OC(=O)[C@H]1[C@@H]2C(N)=O | 0.532

Respectfully, I request composite z-score for each entry included below.
1. COCCCNC(=O)[C@@]1(C)c2ccccc2C(=O)N(Cc2cc(C(F)(F)F)cc(C(F)(F)F)c2)[C@H]1c1ccc(CO)cc1
2. CN(C)C(=O)[C@@]1(CCC(=O)OC(C)(C)C)N=C(c2ccc(OCCCO)cc2)O[C@H]1c1ccccc1

-1.39
2.11

###

assay: S. cerevisiae RM11-1a growth modifiers, primary screen, strain RM11-1a, OD600, basal, 24 h (AID 1177); conditions: OD600, 24 h, higher = more signal, called active from +8 up or from −8 down;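 also: cultures grown under basal conditions with no added stressor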
Active and inactive are the calls of the source.
Assay Readout: z-score

Compound | z-score
Cc1ccc(S[C@]2(C(=O)NC3CC3)CC(=O)N(Cc3ccccc3)[C@@H]2c2ccc(CO)cc2)cc1 | -0.5 (inactive)

Respectfully, I request z-score for each entry included below.
1. COCCCNC(=O)[C@@]1(C)c2ccccc2C(=O)N(Cc2cc(C(F)(F)F)cc(C(F)(F)F)c2)[C@H]1c1ccc(CO)cc1
2. C=CCC(OC(C)=O)[C@@H]1[C@@H](N(Cc2ccc(-c3ccccc3)cc2)C(=O)Cc2ccc(OC)cc2)c2cc(OCCCO)ccc2N1C(=O)c1ccc2ccccc2n1 (stereo partly specified)
3. COCCOC(=O)N1C(=O)[C@@]2(c3cc(C#CC4=CCCCC4)ccc31)[C@H](C(=O)N1CCc3cc(OC)c(OC)cc3C1)[C@H]1C(=O)O[C@H](c3ccccc3)[C@H](c3ccccc3)N1[C@@H]2c1ccccc1OCCO
4. C[C@]1(C(=O)NCc2ccccc2)c2ccccc2C(=O)N(Cc2cc(F)cc(C(F)(F)F)c2)[C@H]1c1ccc(CO)cc1

1. 0.429 (inactive)
2. -1.15 (inactive)
3. 1.78 (inactive)
4. 0.179 (inactive)

Any idea what z-score was measured for `COc1ccc([Si](C)(C)[C@@H]2[C@@H](CCn3cc([C@H](O)c4ccccc4)nn3)O[C@]3(C(=O)N(Cc4cccc(N5CCOC5=O)c4)c4ccccc43)[C@H]2C)cc1` ?
1.98 (inactive)

###

assay: small-molecule binders of probe aNOTCH2, primary screen, biochemical, small-molecule microarray, 635/667 nm fluorescence (AID 1121); conditions: higher = more signal;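 also: score merges feature fluorescence read at 667 nm with its signal to noise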
Give measured composite z-score for each item. Keep answers brief.
One number for each entry.

Molecule | composite z-score
O=C1O[C@@H](c2ccccc2)[C@@H](c2ccccc2)N2[C@@H](c3ccc(O)cc3)[C@]3(C(=O)Nc4ccc(C#CC5=CCCCC5)cc43)[C@@H](C(=O)O)[C@H]12 | 0.0685
O=C1OCC=C[C@H]2OC34C=CCN(c5ccc6ccccc6c5)C(=O)[C@H]3N(CCCO)C(=O)[C@@H]4[C@@H]12 (some centres undefined) | -0.07
CCCNC(=O)[C@@H]1c2ccccc2C(=O)N(Cc2ccccc2)[C@H]1c1ccc(CO)cc1 | -0.0715
COCCOC(=O)N1C(=O)[C@@]2(c3cc(C#CC4=CCCCC4)ccc31)[C@H](C(=O)N1CCc3cc(OC)c(OC)cc3C1)[C@H]1C(=O)O[C@H](c3ccccc3)[C@H](c3ccccc3)N1[C@@H]2c1ccccc1OCCO | -0.118
O=C(CS)NCCCCCCNC(=O)[C@H]1C[C@H]2C(=O)N3CCC[C@H]3C(=O)N2[C@H]1c1cccc(OCCO)c1 | -0.105
C=C[C@H](C)[C@@H](O)c1ccc(O)c2ccccc12 | 0.291

Respectfully, I request composite z-score for each entry included below.
1. COC(=O)C(CC#Cc1ccc2c(c1)[C@]1(C(=O)N2)[C@H](C(=O)NC[C@H](O)c2ccccc2)[C@H]2C(=O)O[C@H](c3ccccc3)[C@H](c3ccccc3)N2[C@@H]1c1ccc(OCCO)cc1)C(=O)OC
2. O=C1O[C@H](c2ccccc2)[C@H](c2ccccc2)N2[C@H]1[C@@H](C(=O)NC[C@H](O)c1ccccc1)[C@]1(C(=O)Nc3ccc(C#CCCO)cc31)[C@H]2c1ccc(O)cc1
3. CC(C)NC(=O)[C@@H]1c2ccccc2C(=O)N(Cc2ccccc2)[C@H]1c1ccc(CO)cc1
4. CC(C)N1C(=O)C[C@@](C(=O)NCc2ccccc2)(c2ccc([N+](=O)[O-])cc2)[C@H]1c1ccc(CO)cc1
5. COCCCNC(=O)[C@@]1(c2ccc([N+](=O)[O-])cc2)CC(=O)N(CC23CC4CC(CC(C4)C2)C3)[C@@H]1c1ccc(CO)cc1
6. C=C(COC)C(=O)CC[C@@H](OC(=O)c1cccnc1)c1ccc(CO)o1
7. CCCCCN1CC=CC23O[C@@H]4C=CCOC(=O)[C@@H]4[C@H]2C(=O)N(CCCO)[C@@H]3C1=O (some centres undefined)

1. 0.146
2. -0.14
3. -0.0638
4. -0.0617
5. -0.117
6. -0.157
7. -0.155

Any idea what composite z-score was measured for `CCOC(=O)C[C@H]1[C@H](OC(=O)Cc2ccc3c(c2)OCO3)[C@@H](NC(=O)C2CCCCC2)c2cc(OCCCO)ccc2N1C(=O)Cc1ccc(OC)cc1` ?
-0.0993
